Tested on: hiPSC-CMs (iCell-Cardiomyocytes^2)
Settings: 0.1 µM, 2h
Measured Attribute: BR (beating rate), % change from baseline (%)

> print(dat)
                                   compound  unit.name  recorded.measurement
1  COc1cccc2c1C(=O)c1c(O)c3c(c(O)c1C2=O)C[C@@](O)(C(=O)CO)C[C@@H]3O[C@H]1C[C@H](N)[C@H](O)[C@H](C)O1 [Doxorubicin]          %                     7
2  O=C(O)COCCN1CCN(C(c2ccccc2)c2ccc(Cl)cc2)CC1 (centres unmarked) [Cetirizine]          %                     2
3  N=C(N)c1ccc(OCCCCCOc2ccc(C(=N)N)cc2)cc1 [Pentamidine]          %                    -1
4  CCN(CC)CCNC(=O)c1c(C)[nH]c(/C=C2\C(=O)Nc3ccc(F)cc32)c1C [Sunitinib]          %                    -5
5  COc1cc2c(Nc3ccc(Br)cc3F)ncnc2cc1OCC1CCN(C)CC1 [Vandetanib]          %                     0

====

Tested on: hiPSC-CMs (iCell-Cardiomyocytes^2)
Settings: 0.1 µM, 48h
The entries below are paired with their reported FPD (field-potential duration), % change from baseline.
Measured Attribute: FPD (field-potential duration), % change from baseline (%)

> print(dat)
                                   compound                       target.entity  unit.name  recorded.measurement
1  COc1cccc2c1C(=O)c1c(O)c3c(c(O)c1C2=O)C[C@@](O)(C(=O)CO)C[C@@H]3O[C@H]1C[C@H](N)[C@H](O)[C@H](C)O1  hiPSC-CMs (iCell-Cardiomyocytes^2)          %                 -24.4
2  Cc1cn(-c2cc(NC(=O)c3ccc(C)c(Nc4nccc(-c5cccnc5)n4)c3)cc(C(F)(F)F)c2)cn1  hiPSC-CMs (iCell-Cardiomyocytes^2)          %                  15.4
3   N=C(N)c1ccc(OCCCCCOc2ccc(C(=N)N)cc2)cc1  hiPSC-CMs (iCell-Cardiomyocytes^2)          %                   7.3
4  O=C(O)COCCN1CCN(C(c2ccccc2)c2ccc(Cl)cc2)CC1 (centres unmarked)  hiPSC-CMs (iCell-Cardiomyocytes^2)          %                   8.3
5  CCN(CC)CCNC(=O)c1c(C)[nH]c(/C=C2\C(=O)Nc3ccc(F)cc32)c1C  hiPSC-CMs (iCell-Cardiomyocytes^2)          %                  35.8

====

System: hiPSC-CMs (iCell-Cardiomyocytes^2)
Conditions: 3 µM; 24h
Procedure: Cells were seeded according to the instructions of the cell provider, in fibronectin-coated 48-well MEA plates (Axion Cytoview Plates, M768-tMEA-48B) at a density suited to form a monolayer (i.e., 50 K/well) and maintained in culture in a stage incubator (37°C, 5% CO2). […] The potential presence of various arrhythmic events was evaluated and noted during the data analysis. […]
Measured Attribute: Flat T-wave-like, number of observations/total well numbers

Compound	Recorded Measurement
C#Cc1cccc(Nc2ncnc3cc(OCCOC)c(OCCOC)cc23)c1	0/5
COc1cc2c(Nc3ccc(Br)cc3F)ncnc2cc1OCC1CCN(C)CC1	2/5
COc1nc(N)nc2c1ncn2[C@@H]1O[C@H](COP(=O)(N[C@@H](C)C(=O)OCC(C)(C)C)Oc2cccc3ccccc23)[C@@H](O)[C@@]1(C)O (stereo partly drawn)	0/5
COc1cccc2c1C(=O)c1c(O)c3c(c(O)c1C2=O)C[C@@](O)(C(=O)CO)C[C@@H]3O[C@H]1C[C@H](N)[C@H](O)[C@H](C)O1	2/5
CC(C)(Sc1cc(C(C)(C)C)c(O)c(C(C)(C)C)c1)Sc1cc(C(C)(C)C)c(O)c(C(C)(C)C)c1	0/5
N=C(N)c1ccc(OCCCCCOc2ccc(C(=N)N)cc2)cc1	0/6
